pKi: −log10 of the molar value.
Values of pKi for Cannabinoid receptor 1 (Homo sapiens, UniProt P21554), collected from a number of published sources:
Quantity measured: pKi

1) Cc1ccc(-c2ncc(C(=O)N(C)Cc3ccccc3)nc2-c2ccc(C)cc2)cc1 = 6.96
2) CC(=O)OCCC#Cc1ccc(-c2c(C)c(C(=O)NN3CCCCC3)nn2-c2ccc(Cl)cc2Cl)cc1 = 7.96
3) CCOc1ccccc1CNC(=O)c1oc2ccc(S(=O)(=O)N3CC(C)CC(C)C3)cc2c1C (centres undefined) = 7.01
4) Cc1c(C(=O)NN2CCCCCC2)nc(-c2ccc(Cl)cc2Cl)n1-c1ccc(Cl)cc1 = 7.19
5) C=CCN(Cc1ccc(N(CC)CC)cc1)S(=O)(=O)c1ccc(C)cc1 = 5.90
6) Cc1cc(C(=O)Nc2ccc3ccccc3c2)c(C)n1-c1ccccc1 = 6.55
7) COc1ccc(S(=O)(=O)c2cc(OC)ccc2S(=O)(=O)c2ccc([C@H](C)NC(=O)C(F)(F)F)cc2)cc1 = 6.63
8) CC(C(=O)NC1CCN(c2ncnc3c2nc(-c2ccccc2Cl)n3-c2ccc(Cl)cc2)CC1)c1ccccc1 (centres undefined) = 8.52
